test.description: Kinetic aqueous solubility of compound in phosphate buffer at pH 7.4 incubated for 1 hr
Format: physicochemical
condition.set: read-out: Kinetic_solubility
recorded.endpoint: solubility kinetic at 1 h

// query solubility kinetic at 1 h value for entry CCS(=O)(=O)N[C@H]1CC[C@H](Nc2ncc3c(CC(C)C)n[nH]c3n2)CC1
< 1 µM

----------
test.description: Intrinsic clearance in CD-1 mouse liver microsomes at 0.5 uM in presence of NADPH measured up to 30 mins by UPLC-MS/MS analysis
Type: ADME, Microsome
condition.set: 0.5 h
Label t when intrinsic clearance is strictly below 3 mL/min/g; at or above that, label f.

Worked cases, answers included:
Hi there! Is intrinsic clearance for O=C(Cc1ccc(F)cc1F)N1CCC(Nc2ncc3c(-c4ccccn4)n[nH]c3n2)CC1 below 3 mL/min/g, do you know?
f

A record lists COc1ccccc1-c1n[nH]c2nc(NC3CCN(C(=O)CC4CC4)CC3)ncc12 . Is its intrinsic clearance below 3 mL/min/g?
t

Regarding CC(C)Cc1n[nH]c2nc(NC3CCN(C(=O)c4ccccc4)CC3)ncc12 , kindly confirm whether its intrinsic clearance is beneath 3 mL/min/g.
f

Does the reported intrinsic clearance of the following compound sit strictly below 3 mL/min/g? O=C(Cc1ccc(F)cc1F)N1CCC(Nc2ncc3c(-c4ccccc4)n[nH]c3n2)CC1
f

Others:
Criterion: intrinsic clearance strictly below 3 mL/min/g. Is it met by O=C(Cc1ccc(F)c(F)c1)N1CCC(Nc2ncc3c(N4CCOCC4)n[nH]c3n2)CC1 ?
t

Strictly below 3 mL/min/g in intrinsic clearance? CC(C)(C)Cc1n[nH]c2nc(NC3CCN(C(=O)Cc4ccc(F)cc4F)CC3)ncc12
f

State whether 3 mL/min/g exceeds intrinsic clearance recorded for CC(C)Cc1n[nH]c2nc(NC3CCN(C(=O)Cc4ccc(Cl)cc4Cl)CC3)ncc12 .
f

Hello, is intrinsic clearance of the following compound strictly smaller than 3 mL/min/g? Clc1ccc(N2CCC(Nc3ncc4c(N5CCOCC5)n[nH]c4n3)CC2)nn1
t

Is the reported intrinsic clearance for COc1ccccc1-c1n[nH]c2nc(NC3CCN(c4ccc(Cl)nn4)CC3)ncc12 strictly below 3 mL/min/g?
f

----------
// values below are reported log10(intrinsic clearance)
test.description: Intrinsic clearance in CD-1 mouse liver microsomes at 0.5 uM in presence of NADPH measured up to 30 mins by UPLC-MS/MS analysis
Type: ADME, Microsome
condition.set: 0.5 h
Log10 applied to intrinsic clearance; unit prior to transform: mL/min/g.

Which log10(intrinsic clearance) value belongs to O=C(Cc1ccc(F)cc1F)N1CCC(Nc2ncc3c(C4CC4)n[nH]c3n2)CC1 ?
0.70

Returns the measured log10(intrinsic clearance) for the input compound. Input: COc1ncccc1-c1n[nH]c2nc(NC3CCN(C(=O)Cc4ccc(F)cc4F)CC3)ncc12
1.18

// lookup log10(intrinsic clearance) for CC(C)Cc1n[nH]c2nc(NC3CCN(C(=O)Cc4ccc(F)cc4F)CC3)ncc12
1.08

Given the compound CC(C)Cc1n[nH]c2nc(NC3CCN(C(=O)Cc4ccccc4)CC3)ncc12 , what is its reported log10(intrinsic clearance)?
1.26

Item COc1ccccc1-c1n[nH]c2nc(NC3CCN(S(=O)(=O)CCC(F)(F)F)CC3)ncc12 has what recorded log10(intrinsic clearance)?
1.15

Next:
Given the compound Cn1nccc1-c1n[nH]c2nc(NC3CCN(C(=O)Cc4ccc(F)cc4F)CC3)ncc12 , what is its reported log10(intrinsic clearance)?
0.52

Requested read-out: log10(intrinsic clearance). Entry: O=C(CC1CC1)N1CCC(Nc2ncc3c(C4CCOCC4)n[nH]c3n2)CC1
-0.10

What log10(intrinsic clearance) value was documented for this compound, O=C(Cc1ccc(F)cc1F)N1CCC(Nc2ncc3c(N4CCOCC4)n[nH]c3n2)CC1 ?
0.30

Endpoint output: log10(intrinsic clearance) of O=C(Cc1ccc(F)cc1F)N1CCC(Nc2ncc3c(C4CCOCC4)n[nH]c3n2)CC1 . Value?
-0.30

----------
test.description: Intrinsic clearance in CD-1 mouse liver microsomes at 0.5 uM in presence of NADPH measured up to 30 mins by UPLC-MS/MS analysis
Assay type: ADME, Microsome
condition.set: 0.5 h
Is intrinsic clearance at least 5 mL/min/g? Then TRUE. If not, FALSE.

Below, 7 compounds whose answers are already recorded.
Entry CC(C)Cc1n[nH]c2nc(NC3CCN(S(=O)(=O)Cc4ccccc4)CC3)ncc12 : is its intrinsic clearance no less than 5 mL/min/g?
TRUE

Could you tell me if the measured intrinsic clearance of CCS(=O)(=O)N[C@H]1CC[C@H](Nc2ncc3c(CC(C)C)n[nH]c3n2)CC1 reaches 5 mL/min/g or more?
TRUE

Is it the case that COc1ccccc1-c1n[nH]c2nc(NC3CCN(C(=O)Cc4ccc(F)c(F)c4)CC3)ncc12 has intrinsic clearance reaching or exceeding 5 mL/min/g?
TRUE

Is intrinsic clearance for CCOC(=O)N1CCC(Nc2ncc3c(-c4ccccc4OC)n[nH]c3n2)CC1 at or above 5 mL/min/g?
TRUE

Form field: intrinsic clearance at least 5 mL/min/g? Entry: O=C(Cc1ccc(F)cc1F)N1CCC(Nc2ncc3c(CN4CCOCC4)n[nH]c3n2)CC1
FALSE

Identify whether the reported intrinsic clearance of the following compound is 5 mL/min/g or greater: COc1ccccc1-c1n[nH]c2nc(NC3CCN(C(=O)OCc4ccccc4)CC3)ncc12
TRUE

Hi team, for COc1ccccc1-c1n[nH]c2nc(NC3CCN(C(=O)N4CCOCC4)CC3)ncc12 , is the recorded intrinsic clearance at or above 5 mL/min/g?
FALSE

Now take the following compound into account.
Check this compound for intrinsic clearance at or above 5 mL/min/g: O=C(Cc1ccc(F)c(F)c1)N1CCC(Nc2ncc3c(C4CCOCC4)n[nH]c3n2)CC1
FALSE
